Data origin: patent US8470816B2

# test-target: human NK2 (hNK2) receptor (Homo sapiens (Human))
# Sequence (P21452 whole entry): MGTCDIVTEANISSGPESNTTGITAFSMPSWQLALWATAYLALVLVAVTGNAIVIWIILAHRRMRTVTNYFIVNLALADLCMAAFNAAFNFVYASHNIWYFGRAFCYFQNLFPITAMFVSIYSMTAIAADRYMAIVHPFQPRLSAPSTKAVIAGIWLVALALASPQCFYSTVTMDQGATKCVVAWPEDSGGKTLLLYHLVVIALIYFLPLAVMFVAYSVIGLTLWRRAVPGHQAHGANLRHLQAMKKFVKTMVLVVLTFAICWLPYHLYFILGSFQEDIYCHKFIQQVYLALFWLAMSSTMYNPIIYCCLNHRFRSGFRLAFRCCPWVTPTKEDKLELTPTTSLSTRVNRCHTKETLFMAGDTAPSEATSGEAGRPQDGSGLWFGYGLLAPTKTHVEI

>  <compound>
CC(=O)N1CCC(C(=O)N2C[C@@H](N(C)C(=O)c3cc(C(F)(F)F)cc(C(F)(F)F)c3)[C@H](c3ccc(Cl)c(Cl)c3)C2)CC1 (racemic)

>  <IC50, nM>
2.2

$$$$
>  <compound>
CC(=O)N1CCC(C(=O)N2CC[C@@H](N(C)C(=O)c3ccc(-c4ccccc4)cc3)[C@H](c3ccc(Cl)c(Cl)c3)C2)CC1 (racemic)

>  <IC50, nM>
1.7

$$$$
>  <compound>
CC(=O)N1CCC(C(=O)N2CC[C@@H](N(C)C(=O)c3ccc(N4CCOCC4)cc3)[C@H](c3ccc(Cl)c(Cl)c3)C2)CC1.O [Example 268, monohydrate]

>  <IC50, nM>
0.42

$$$$

----------
Let's look at some molecules and their measured melting point.

>  <molecule>
CC(=O)N1CCC(C(=O)N2CC[C@@H](N(C)C(=O)c3ccc(Cl)cc3)[C@H](c3ccc(Cl)c(Cl)c3)C2)CC1.O (hydrate or solvate)

>  <melting point>
113 to 115 °C

$$$$
>  <molecule>
CC(=O)N1CCC(C(=O)N2CC[C@@H](N(C)C(=O)c3ccc(N4CCOCC4)cc3)[C@H](c3ccc(Cl)c(Cl)c3)C2)CC1.O (hydrate or solvate)

>  <melting point>
136 to 139 °C

$$$$
>  <molecule>
CN(C(=O)c1ccc(Br)cc1)[C@@H]1CCN(C(=O)C2CCN(C(=O)CO)CC2)C[C@H]1c1ccc(Cl)c(Cl)c1.O (hydrate or solvate)

>  <melting point>
130 to 132 °C

$$$$
>  <molecule>
CN(C(=O)c1ccc(C(F)(F)F)cc1)[C@@H]1CCN(C(=O)C2CCN(C(=O)CO)CC2)C[C@H]1c1ccc(Cl)c(Cl)c1.O (hydrate or solvate)

>  <melting point>
124 to 127 °C

$$$$
>  <molecule>
CN(C(=O)c1ccc(Cl)cc1)[C@@H]1CCN(C(=O)Nc2ccc(F)nc2)C[C@H]1c1ccc(Cl)c(Cl)c1

>  <melting point>
156 to 158 °C

$$$$
>  <molecule>
CN(C(=O)c1ccc(Cl)cc1)[C@@H]1CCN(C(=O)C2CCN(C(=O)CO)CC2)C[C@H]1c1ccc(Cl)c(Cl)c1.O (hydrate or solvate)

>  <melting point>
128 to 131 °C

$$$$
>  <molecule>
COc1ccc(C(=O)N(C)[C@@H]2CCN(C(=O)C3CCN(C(C)=O)CC3)C[C@H]2c2ccc(Cl)c(Cl)c2)cc1

>  <melting point>
134 to 136 °C

$$$$
>  <molecule>
CC(=O)N1CCC(C(=O)N2CC[C@@H](N(C)C(=O)c3ccc(Br)cn3)[C@H](c3ccc(Cl)c(Cl)c3)C2)CC1

>  <melting point>
128 to 130 °C

$$$$
